System: Escherichia coli TOP10
assay-protocol: shrunken log2 fold change of peptide-encoding DNA abundance (4.5 h post-induction vs induction); higher = less antimicrobial activity (less host growth inhibition)
test-settings: time post-induction: 4.5 h; library: site-saturation at positions 5, 18, 19, 20
Hi, to clarify the labels: criterion met covers shrunken log2 fold change from -0.04 upward, criterion not met covers anything below -0.04.

Answered examples (4):
RRIRTRPPRLPRPRPRPNTNPRP ... criterion not met
RRIRDRPPRLPRPRPRPLYMPRP ... criterion met
RRIRVRPPRLPRPRPRPKWTPRP ... criterion met
RRIRIRPPRLPRPRPRPIRPPRP ... criterion not met

In: Hi team, for `RRIRSRPPRLPRPRPRPDMKPRP` , is the recorded shrunken log2 fold change at or above -0.04?
Out: criterion not met

In: Hi team, for `RRIRTRPPRLPRPRPRPAFQPRP` , is the recorded shrunken log2 fold change at or above -0.04?
Out: criterion met

In: Hi team, for `RRIRQRPPRLPRPRPRPICAPRP` , is the recorded shrunken log2 fold change at or above -0.04?
Out: criterion met

* * *

System: Escherichia coli TOP10
assay-protocol: shrunken log2 fold change of peptide-encoding DNA abundance (4.5 h post-induction vs induction); higher = less antimicrobial activity (less host growth inhibition)
test-settings: time post-induction: 4.5 h; library: site-saturation at positions 5, 18, 19, 20
Consider the following sequences and their measured shrunken log2 fold change readings.
Give a plain numeric answer without units written out.

RRIRSRPPRLPRPRPRPAVVPRP ... -0.0261

The reported Escherichia coli TOP10 shrunken log2 fold change of `RRIRLRPPRLPRPRPRPQSHPRP` is -0.349

The reported Escherichia coli TOP10 shrunken log2 fold change of `RRIRARPPRLPRPRPRPMSQPRP` is 0.235

The reported Escherichia coli TOP10 shrunken log2 fold change of `RRIRFRPPRLPRPRPRPAEPPRP` is 0.137

* * *

Test system: Escherichia coli TOP10
assay-protocol: shrunken log2 fold change of peptide-encoding DNA abundance (4.5 h post-induction vs induction); higher = less antimicrobial activity (less host growth inhibition)
test-settings: time post-induction: 4.5 h; library: site-saturation at positions 5, 18, 19, 20
recorded-metric: shrunken log2 fold change

Example entries begin here.
RRIRGRPPRLPRPRPRPVGQPRP ... 0.145
RRIRMRPPRLPRPRPRPHSFPRP ... 0.0932
RRIRERPPRLPRPRPRPFEDPRP ... -0.0547
RRIRIRPPRLPRPRPRPKQQPRP ... 0.0512
RRIRYRPPRLPRPRPRPLSIPRP ... -0.129
RRIRCRPPRLPRPRPRPMKTPRP ... -0.11
RRIRSRPPRLPRPRPRPKNWPRP ... 0.176
RRIRWRPPRLPRPRPRPQGCPRP ... 0.0267
RRIRQRPPRLPRPRPRPKPTPRP ... -0.0515
RRIRFRPPRLPRPRPRPDQFPRP ... -0.221

The reported Escherichia coli TOP10 shrunken log2 fold change of `RRIRVRPPRLPRPRPRPIYCPRP` is -0.113

The reported Escherichia coli TOP10 shrunken log2 fold change of `RRIRNRPPRLPRPRPRPCICPRP` is -0.33

The reported Escherichia coli TOP10 shrunken log2 fold change of `RRIRKRPPRLPRPRPRPWKIPRP` is -0.00192

The reported Escherichia coli TOP10 shrunken log2 fold change of `RRIRHRPPRLPRPRPRPKRDPRP` is 0.158

The reported Escherichia coli TOP10 shrunken log2 fold change of `RRIRKRPPRLPRPRPRPFYWPRP` is 0.144

The reported Escherichia coli TOP10 shrunken log2 fold change of `RRIRRRPPRLPRPRPRPHGEPRP` is 0.0136

The reported Escherichia coli TOP10 shrunken log2 fold change of `RRIRMRPPRLPRPRPRPAWPPRP` is 0.896

* * *

Test system: Escherichia coli TOP10
assay-protocol: shrunken log2 fold change of peptide-encoding DNA abundance (4.5 h post-induction vs induction); higher = less antimicrobial activity (less host growth inhibition)
test-settings: time post-induction: 4.5 h; library: site-saturation at positions 5, 18, 19, 20
Hi, to clarify the labels: Y covers shrunken log2 fold change from 0.04 upward, N covers anything below 0.04.

In: Hi team, for `RRIRYRPPRLPRPRPRPACQPRP` , is the recorded shrunken log2 fold change at or above 0.04?
Out: N

In: Hi team, for `RRIRNRPPRLPRPRPRPESRPRP` , is the recorded shrunken log2 fold change at or above 0.04?
Out: Y

In: Hi team, for `RRIRSRPPRLPRPRPRPNVHPRP` , is the recorded shrunken log2 fold change at or above 0.04?
Out: N

In: Hi team, for `RRIRLRPPRLPRPRPRPDYRPRP` , is the recorded shrunken log2 fold change at or above 0.04?
Out: N

In: Hi team, for `RRIRSRPPRLPRPRPRPNVNPRP` , is the recorded shrunken log2 fold change at or above 0.04?
Out: Y

In: Hi team, for `RRIRIRPPRLPRPRPRPGFHPRP` , is the recorded shrunken log2 fold change at or above 0.04?
Out: Y

In: Hi team, for `RRIRYRPPRLPRPRPRPTMWPRP` , is the recorded shrunken log2 fold change at or above 0.04?
Out: N

* * *

Tested on: Escherichia coli TOP10
assay-protocol: shrunken log2 fold change of peptide-encoding DNA abundance (4.5 h post-induction vs induction); higher = less antimicrobial activity (less host growth inhibition)
test-settings: time post-induction: 4.5 h; library: site-saturation at positions 5, 18, 19, 20
Consider the following sequences and their measured shrunken log2 fold change readings.
Give a plain numeric answer without units written out.

RRIRRRPPRLPRPRPRPHCQPRP ... 0.17

The reported Escherichia coli TOP10 shrunken log2 fold change of `RRIRLRPPRLPRPRPRPYARPRP` is -0.44

The reported Escherichia coli TOP10 shrunken log2 fold change of `RRIRDRPPRLPRPRPRPGWVPRP` is 0.223

* * *

Test system: Escherichia coli TOP10
assay-protocol: shrunken log2 fold change of peptide-encoding DNA abundance (4.5 h post-induction vs induction); higher = less antimicrobial activity (less host growth inhibition)
test-settings: time post-induction: 4.5 h; library: site-saturation at positions 5, 18, 19, 20
Hi, to clarify the labels: 1 covers shrunken log2 fold change from -0.08 upward, -1 covers anything below -0.08.

Answered examples (2):
RRIRERPPRLPRPRPRPYGGPRP ... -1
RRIRMRPPRLPRPRPRPKASPRP ... 1

In: Hi team, for `RRIRIRPPRLPRPRPRPQWHPRP` , is the recorded shrunken log2 fold change at or above -0.08?
Out: -1

In: Hi team, for `RRIRPRPPRLPRPRPRPMILPRP` , is the recorded shrunken log2 fold change at or above -0.08?
Out: 1

In: Hi team, for `RRIRQRPPRLPRPRPRPAVKPRP` , is the recorded shrunken log2 fold change at or above -0.08?
Out: 1

In: Hi team, for `RRIRIRPPRLPRPRPRPYKKPRP` , is the recorded shrunken log2 fold change at or above -0.08?
Out: 1

In: Hi team, for `RRIRWRPPRLPRPRPRPPSTPRP` , is the recorded shrunken log2 fold change at or above -0.08?
Out: 1

In: Hi team, for `RRIRMRPPRLPRPRPRPRPWPRP` , is the recorded shrunken log2 fold change at or above -0.08?
Out: 1

* * *

Tested on: Escherichia coli TOP10
assay-protocol: shrunken log2 fold change of peptide-encoding DNA abundance (4.5 h post-induction vs induction); higher = less antimicrobial activity (less host growth inhibition)
test-settings: time post-induction: 4.5 h; library: site-saturation at positions 5, 18, 19, 20
Hi, to clarify the labels: 1.0 covers shrunken log2 fold change from -0.07 upward, 0.0 covers anything below -0.07.

Answered examples (2):
RRIRMRPPRLPRPRPRPWAHPRP ... 0.0
RRIRDRPPRLPRPRPRPYFSPRP ... 0.0

Let's switch to this sequence now.
In: Hi team, for `RRIRPRPPRLPRPRPRPSKCPRP` , is the recorded shrunken log2 fold change at or above -0.07?
Out: 0.0

* * *

Tested on: Escherichia coli TOP10;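 further: peptides expressed intracellularly from a pBAD plasmid library in pooled LB shake-flask culture, induced with 0.3% L-arabinose, DNA abundance read by NGS, three biological replicates, DESeq2 with apeglm shrinkage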
assay-protocol: shrunken log2 fold change of peptide-encoding DNA abundance (4.5 h post-induction vs induction); higher = less antimicrobial activity (less host growth inhibition)
test-settings: time post-induction: 4.5 h; library: site-saturation at positions 5, 18, 19, 20
recorded-metric: shrunken log2 fold change
Give a plain numeric answer without units written out.

RRIRWRPPRLPRPRPRPGYSPRP ... -0.191
RRIRVRPPRLPRPRPRPDSYPRP ... 0.0384
RRIRMRPPRLPRPRPRPIHFPRP ... -0.0141

The reported shrunken log2 fold change of the sequence `RRIRKRPPRLPRPRPRPCQAPRP` was 0.157

The reported shrunken log2 fold change of the sequence `RRIRFRPPRLPRPRPRPKHFPRP` was -0.0499
